// hNPY Y2 pEC50 (melanophore assay) lookup, one value per entry
studySystem: T1, human Neuropeptide Y receptor type 2 (human, UniProt P49146 1-381)
T1 sequence (looked up): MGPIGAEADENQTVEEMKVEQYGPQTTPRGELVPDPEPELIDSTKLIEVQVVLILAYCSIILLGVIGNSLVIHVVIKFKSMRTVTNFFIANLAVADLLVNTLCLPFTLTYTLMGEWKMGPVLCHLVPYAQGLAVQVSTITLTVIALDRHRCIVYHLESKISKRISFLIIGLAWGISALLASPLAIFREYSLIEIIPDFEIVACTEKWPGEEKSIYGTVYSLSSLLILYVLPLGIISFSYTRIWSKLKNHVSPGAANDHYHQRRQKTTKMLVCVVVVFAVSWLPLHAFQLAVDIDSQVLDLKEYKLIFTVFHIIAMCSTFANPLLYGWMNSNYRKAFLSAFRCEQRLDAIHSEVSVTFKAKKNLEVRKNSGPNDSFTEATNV
methodSummary: cell-based or functional assay
Where no end group is shown, it is not given here.
Respond using a number only.

// solved cases for hNPY Y2 pEC50 (melanophore assay) follow
- binder: "PKPEAPGEDASPKEWNRYYASLRKYLNWVTRQRY-NH2 [Peptide 3]"
  measurementLabel: "hNPY Y2 pEC50 (melanophore assay)"
  testValue: 9.2
- binder: "IKPPYPGCDASPEEQNKYYASLRAYWNLVTRQRY-NH2 [Peptide 8]"
  measurementLabel: "hNPY Y2 pEC50 (melanophore assay)"
  testValue: 9.3

Query: For the binder PKPEAPGCDASPEEWNRYYASLRKYLNWVTRQHY-NH2 [Peptide 14] , what hNPY Y2 pEC50 (melanophore assay) is on record?
Result: 8.2

Query: Here is the next binder: PKPEAPLSKQLEEEAVRYYASLRHYLNLVTRQRY-NH2 [Peptide 21]
Result: 8.7
